Biological target: H15 (Influenza A virus)
Test: FACS, HA on mammalian cells; 2nd only 12
result_type: % cells binding to HA (%)
Numbers only, in %.

Reference set, count: 2
[
  {
    "binder": "FHF11 (antibody, V domains shown) VH: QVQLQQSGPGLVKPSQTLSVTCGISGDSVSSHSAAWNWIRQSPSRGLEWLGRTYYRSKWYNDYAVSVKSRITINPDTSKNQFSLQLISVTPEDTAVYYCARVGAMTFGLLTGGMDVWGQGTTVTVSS VL: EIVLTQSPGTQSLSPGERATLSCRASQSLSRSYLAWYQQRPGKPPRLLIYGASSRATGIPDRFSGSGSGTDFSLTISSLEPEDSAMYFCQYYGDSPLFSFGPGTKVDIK",
    "% cells binding to HA [%]": 76
  },
  {
    "binder": "FHF11v6 (antibody, V domains shown) VH: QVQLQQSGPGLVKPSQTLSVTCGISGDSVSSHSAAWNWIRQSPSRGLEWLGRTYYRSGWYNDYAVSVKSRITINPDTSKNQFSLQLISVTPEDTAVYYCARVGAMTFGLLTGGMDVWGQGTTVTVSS VL: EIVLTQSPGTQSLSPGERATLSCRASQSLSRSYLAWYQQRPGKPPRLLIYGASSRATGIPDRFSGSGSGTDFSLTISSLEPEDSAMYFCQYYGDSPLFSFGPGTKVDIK",
    "% cells binding to HA [%]": 75
  }
]

Lab note: each binder below needs its % cells binding to HA filled in.
1. FHF11v9 (antibody, V domains shown) VH: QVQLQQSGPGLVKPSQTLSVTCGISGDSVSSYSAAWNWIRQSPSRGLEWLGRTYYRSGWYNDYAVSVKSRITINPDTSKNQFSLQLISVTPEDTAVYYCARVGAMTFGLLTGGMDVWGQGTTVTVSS VL: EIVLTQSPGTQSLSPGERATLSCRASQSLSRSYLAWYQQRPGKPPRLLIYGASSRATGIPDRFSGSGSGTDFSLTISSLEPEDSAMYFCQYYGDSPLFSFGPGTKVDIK
2. FHF11v3 (antibody, V domains shown) VH: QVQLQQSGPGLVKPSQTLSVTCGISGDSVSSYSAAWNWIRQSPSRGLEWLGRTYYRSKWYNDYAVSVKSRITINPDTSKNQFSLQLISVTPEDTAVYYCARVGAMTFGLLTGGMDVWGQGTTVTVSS VL: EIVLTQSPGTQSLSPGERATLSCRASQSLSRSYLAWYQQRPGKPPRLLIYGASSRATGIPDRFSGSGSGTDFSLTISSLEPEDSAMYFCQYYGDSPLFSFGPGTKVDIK

63
66
